Readings of inhibition at 2 µM for the listed compounds
Biological target: CYP19 (aromatase) (Homo sapiens, UniProt P11511)
Sequence (P11511 whole entry): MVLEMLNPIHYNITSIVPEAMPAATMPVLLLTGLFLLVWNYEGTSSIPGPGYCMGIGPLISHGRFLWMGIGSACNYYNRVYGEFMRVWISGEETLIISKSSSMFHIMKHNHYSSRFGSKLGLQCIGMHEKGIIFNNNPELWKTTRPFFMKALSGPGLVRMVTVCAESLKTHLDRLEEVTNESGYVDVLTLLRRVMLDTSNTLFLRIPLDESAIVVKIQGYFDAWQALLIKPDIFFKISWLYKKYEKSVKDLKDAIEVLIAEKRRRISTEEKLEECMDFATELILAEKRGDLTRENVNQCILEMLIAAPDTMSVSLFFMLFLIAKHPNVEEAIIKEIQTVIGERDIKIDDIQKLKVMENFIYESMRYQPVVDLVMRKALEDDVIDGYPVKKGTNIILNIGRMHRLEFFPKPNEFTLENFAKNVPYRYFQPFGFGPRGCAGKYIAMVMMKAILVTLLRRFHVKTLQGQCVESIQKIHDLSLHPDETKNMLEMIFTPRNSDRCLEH
Experiment: Inhibition of human placental CYP19 using [1beta-3H]androstenedione as substrate at 2 uM by 3H2O-method
Conditions: human placental CYP19, probe [1beta-3H]androstenedione
A number alone suffices; assume %.

- compound: "COc1cccc(S(=O)(=O)N2CCCc3cc(-c4cccnc4)ccc32)c1"
  unit-descriptor: "%"
  inhibition at 2 µM: 32
- compound: "COc1cccc(S(=O)(=O)N2CCCc3cc(Cc4ccncc4)ccc32)c1"
  unit-descriptor: "%"
  inhibition at 2 µM: 88
- compound: "Cc1cccc(S(=O)(=O)N2CCCc3cc(-c4cccnc4)ccc32)c1"
  unit-descriptor: "%"
  inhibition at 2 µM: 29

QUERY: Given the entry "COc1cccc(S(=O)(=O)N2CCCc3cc(Cc4cccnc4)ccc32)c1" , report its measured inhibition at 2 µM.
RESULT: 26
